Reference source for all entries: patent US6136798A

target: PDGF Receptor/PI 3-Kinase association in rat aortic smooth muscle cells (Rattus norvegicus, UniProt Q63787); construct: endogenous in cells; experiment: PDGF Receptor/PI 3-Kinase Cell Association Assay; conditions: RASMC, 24 h compound, PDGF-BB 30 ng/mL 5 minutes, p85 immunoblot; read-out: Cellular IC50
Sequence (Q63787 whole entry): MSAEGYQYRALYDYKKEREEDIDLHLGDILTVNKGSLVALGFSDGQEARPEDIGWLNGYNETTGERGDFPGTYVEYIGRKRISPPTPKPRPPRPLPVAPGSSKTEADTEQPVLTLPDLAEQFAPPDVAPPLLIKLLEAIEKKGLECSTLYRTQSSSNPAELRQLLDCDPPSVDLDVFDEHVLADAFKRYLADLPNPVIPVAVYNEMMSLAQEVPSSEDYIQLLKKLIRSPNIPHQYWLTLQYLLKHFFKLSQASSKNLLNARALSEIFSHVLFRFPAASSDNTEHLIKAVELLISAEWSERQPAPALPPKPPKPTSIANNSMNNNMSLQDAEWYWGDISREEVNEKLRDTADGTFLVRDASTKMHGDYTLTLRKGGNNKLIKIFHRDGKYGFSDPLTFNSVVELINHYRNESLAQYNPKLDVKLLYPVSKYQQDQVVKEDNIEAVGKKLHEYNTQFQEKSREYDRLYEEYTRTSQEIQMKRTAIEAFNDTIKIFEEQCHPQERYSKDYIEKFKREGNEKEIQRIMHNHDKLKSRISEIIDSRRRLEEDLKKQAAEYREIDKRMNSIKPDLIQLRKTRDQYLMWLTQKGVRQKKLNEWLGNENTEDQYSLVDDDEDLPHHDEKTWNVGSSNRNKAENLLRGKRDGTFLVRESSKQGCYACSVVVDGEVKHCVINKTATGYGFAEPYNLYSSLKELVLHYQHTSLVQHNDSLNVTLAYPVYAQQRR
Property name: IC50
Could you kindly put the unit after your number?

Can you share its IC50? I mean this compound: `CCCCN(CCCC)C(=O)[C@H](C)NC(=O)[C@@H](NC(=O)[C@H](Cc1ccc(OP(=O)(O)O)cc1)NC(C)=O)C(C)C` 37.5 µM

###

target: PDGF-β receptor tyrosine kinase intracellular domain / p85 SH2 fusion protein (PDGF Receptor/PI3-Kinase Association) (Homo sapiens); construct: The pGEX plasmid expressing the carboxy-terminal SH2 of the p85 subunit of PI3-kinase; PDGF-β receptor intracellular domain: SF9 insect cells, obtained from L. T. Williams (UCSF); assay: p85 SH2--PDGF-β Receptor Binding Assay; settings: [35S]p85 C-terminal SH2 fusion protein binding to phosphorylated PDGF-β receptor; 25° C., 20 minutes
Property name: IC50 (nM)
Use nM as the unit, but write only the number.

// known answers, use as guide
1) CCCCN(CCCC)C(=O)[C@H](C)NC(=O)[C@@H](NC(=O)[C@H](Cc1ccc(OP(=O)(O)O)cc1)NC(C)=O)C(C)C [Example 6]	1600
2) CCCCCCCCN(CCCCCCCC)C(=O)[C@H](C)NC(=O)[C@@H](NC(=O)[C@H](Cc1ccc(C(F)(F)P(=O)(O)O)cc1)NC(C)=O)C(C)C [Example 3]	12200

The record that follows has no IC50 shown yet.
Can you share its IC50? I mean this compound: CCCCCCN(CCCCCC)C(=O)[C@H](C)NC(=O)[C@@H](NC(=O)[C@H](Cc1ccc(OP(=O)(O)O)cc1)NC(C)=O)C(C)C [Example 4] 80

###

Reported pIC50 by item:
molecular target: PDGF-β receptor tyrosine kinase intracellular domain / p85 SH2 fusion protein (PDGF Receptor/PI3-Kinase Association) (Homo sapiens, UniProt P27986); construct: The pGEX plasmid expressing the carboxy-terminal SH2 of the p85 subunit of PI3-kinase; made in house; host or cells: p85 SH2-GST: E. coli; PDGF-β receptor intracellular domain: SF9 insect cells, obtained from L. T. Williams (UCSF); experiment: p85 SH2--PDGF-β Receptor Binding Assay; details: [35S]p85 C-terminal SH2 fusion protein binding to phosphorylated PDGF-β receptor; 25° C., 20 minutes
Sequence (P27986 624-718 limits assumed): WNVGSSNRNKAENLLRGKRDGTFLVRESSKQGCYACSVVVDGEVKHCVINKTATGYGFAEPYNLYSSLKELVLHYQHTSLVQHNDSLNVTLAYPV
The quantity pIC50 is defined as the negative base-10 logarithm of the molar concentration.

// known answers, use as guide
1. CCCCCN(CCCCC)C(=O)[C@H](C)NC(=O)[C@@H](NC(=O)[C@H](Cc1ccc(OP(=O)(O)O)cc1)NC(C)=O)C(C)C	6.66
2. CCCCCN(CCCCC)C(=O)[C@H](C)NC(=O)[C@@H](NC(=O)[C@H](Cc1ccc(C(F)(F)P(=O)(O)O)cc1)NC(C)=O)C(C)C	6.54
3. CCCCCCCCN(CCCCCCCC)C(=O)[C@H](C)NC(=O)[C@@H](NC(=O)[C@H](Cc1ccc(OP(=O)(O)O)cc1)NC(C)=O)C(C)C	5.46

The record that follows has no pIC50 shown yet.
Can you share its pIC50? I mean this compound: `CCCCCCN(CCCCCC)C(=O)[C@H](C)NC(=O)[C@@H](NC(=O)[C@H](Cc1ccc(C(F)(F)P(=O)(O)O)cc1)NC(C)=O)C(C)C` 6.35
